Each entry below carries its reported Kb.
biological target: AR-Receptor (Homo sapiens, UniProt P10275); assay: Functional Assay AR-Receptor (MDA-MB-453 cells, luciferase); assay type: cell-based; conditions: antagonist effect in the presence of DHT 1 nM, 24 h, luciferase luminescence, read-out: AR antag KB
Sequence (P10275 whole entry Q868H, form open): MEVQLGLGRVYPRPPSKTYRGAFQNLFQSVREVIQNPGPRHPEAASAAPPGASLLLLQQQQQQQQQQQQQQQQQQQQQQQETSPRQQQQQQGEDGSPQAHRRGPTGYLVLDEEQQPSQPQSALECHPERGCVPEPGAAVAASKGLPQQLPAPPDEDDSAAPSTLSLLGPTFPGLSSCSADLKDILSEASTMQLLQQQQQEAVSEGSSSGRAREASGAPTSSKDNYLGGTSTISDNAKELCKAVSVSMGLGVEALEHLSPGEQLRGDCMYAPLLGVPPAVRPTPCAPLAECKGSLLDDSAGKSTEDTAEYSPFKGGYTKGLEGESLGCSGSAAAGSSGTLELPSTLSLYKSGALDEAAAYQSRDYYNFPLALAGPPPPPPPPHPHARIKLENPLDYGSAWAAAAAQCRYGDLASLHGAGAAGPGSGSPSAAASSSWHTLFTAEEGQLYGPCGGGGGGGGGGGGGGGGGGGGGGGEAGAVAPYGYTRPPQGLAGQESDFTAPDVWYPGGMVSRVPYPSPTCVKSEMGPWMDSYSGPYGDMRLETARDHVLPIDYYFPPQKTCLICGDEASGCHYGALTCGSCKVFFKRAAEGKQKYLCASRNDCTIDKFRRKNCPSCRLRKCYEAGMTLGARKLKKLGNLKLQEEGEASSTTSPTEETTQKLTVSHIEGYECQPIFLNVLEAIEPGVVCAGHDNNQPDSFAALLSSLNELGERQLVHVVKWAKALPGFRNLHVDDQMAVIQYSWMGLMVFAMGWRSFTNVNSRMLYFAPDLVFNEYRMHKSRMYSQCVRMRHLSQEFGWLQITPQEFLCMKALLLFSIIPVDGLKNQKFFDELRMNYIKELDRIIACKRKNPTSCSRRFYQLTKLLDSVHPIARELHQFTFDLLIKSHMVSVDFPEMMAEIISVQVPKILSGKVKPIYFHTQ

Examples with answers:
molecule	Kb
CC(=O)C1=C(C)NC(C)=C(C(=O)OCc2ccc(-c3ccncc3)cc2)C1c1csc2ncccc12 (centres unmarked) [Example L1]	100 to 1000 nM
CC(=O)C1=C(C)NC(C)=C(C(=O)OCc2ccc(Br)cc2)C1c1csc2ncccc12 (centres unmarked) [Example C65]	100 to 1000 nM
CC(=O)C1=C(C)NC(C)=C(C(=O)Cc2ccccc2)C1c1csc2ccccc12 (centres unmarked) [Example C52]	100 to 1000 nM

Request: Please give the measured Kb for this molecule: CC1=C(C(=O)OCC2CC2)C(c2csc3c(C#N)cccc23)C(C(=O)OCC2CC2)=C(N)N1 (centres unmarked) [Example D46]
Result: ≥ 1000 nM

Request: Report Kb for CC(=O)C1=C(C)NC(C)=C(C(=O)OCc2ccc(Cl)nc2)C1c1csc2ncccc12 (centres unmarked) [Example C74] please.
Result: ≥ 1000 nM

Request: Which value of Kb has been reported for CC(=O)C1=C(C)NC(C)=C(C(=O)OC2CCCCC2)C1c1csc2ncccc12 (centres unmarked) [Example C36] in the records?
Result: ≥ 1000 nM

Request: Please give the measured Kb for this molecule: CC(=O)C1=C(C)NC(C)=C(C(=O)OCc2ccncc2)C1c1csc2ccccc12 (centres unmarked) [Example B12]
Result: < 100 nM

Request: What does the data say about its Kb? Entry: CC(=O)C1=C(C)NC(C)=C(C(=O)OCc2cccc(C#N)c2)C1c1csc2ncccc12 (centres unmarked) [Example C72]
Result: ≥ 1000 nM

Request: Which Kb reading was recorded for the molecule CC(=O)C1=C(C)NC(C)=C(C(=O)OCc2cccnc2)C1c1csc2ccccc12 (centres unmarked) [Example C48] ?
Result: 100 to 1000 nM
